Target: acyl-CoA:cholesterol acyl transferase (ACAT) (Rattus norvegicus, UniProt Q7TQM4)
Construct: small intestine mucosal microsome fraction of a 6-week-old male Sprague-Dawley rat; from tissue; host or cells: rat small intestine mucosa, microsome fraction
Assay: Inhibitory action against acyl-CoA:cholesterol acyl transferase (ACAT), formation of labeled cholesterol ester, small intestine mucosal microsome fraction
Type: biochemical, male Sprague-Dawley rat
Conditions: 10^-6 M; read-out: ACAT Inhibitory Rate (%)
Field: inhibition at 1 µM. Provide a value for each of the compounds that follow.
Could you give me the number in %? Just the number is fine.

Ask: Which inhibition at 1 µM value belongs to CC(C)c1cccc(C(C)C)c1NC(=O)Cc1c(-c2ccccc2C(F)(F)F)c2cc(Cl)ccc2oc1=O ?
Result: 98.6

Ask: Which value of inhibition at 1 µM has been reported for Cc1ccc2c(c1)[C@@H](c1ccccc1)[C@H](CC(=O)Nc1c(C(C)C)cccc1C(C)C)C(=O)N2C (relative stereo) in the records?
Result: 99.9

Ask: Please look up its inhibition at 1 µM: COc1cccc(OC)c1NC(=O)Cc1oc(=O)c2ccc(Cl)cc2c1-c1ccccc1
Result: 99.3

Ask: Look up inhibition at 1 µM: O=C(Cc1c(-c2ccccc2)c2cc(Cl)ccc2oc1=O)Nc1ccc(F)cc1F
Result: 90.4

Ask: # query: inhibition at 1 µM of entry COc1cc(OC)c(NC(=O)C[C@@H]2C(=O)N(C)c3ccc(Cl)cc3[C@H]2c2ccccc2)c(OC)c1 (relative stereo)
Result: 96.9

Ask: Data request, read-out inhibition at 1 µM, for O=C(Cc1oc(=O)c2ccc(Cl)cc2c1-c1ccccc1)Nc1ccc(F)cc1F
Result: 92.8

Ask: What does the record list as inhibition at 1 µM for CC(C)c1cccc(C(C)C)c1NC(=O)C[C@@H]1C(=O)N(C)c2ccc(Cl)cc2[C@H]1c1ccccc1Cl (relative stereo) ?
Result: 99.3

Ask: What value of measured inhibition at 1 µM is listed for Cc1cc2c(cc1C)N(C)C(=O)[C@@H](C(=O)Nc1ccc(F)cc1F)[C@@H]2c1ccccc1Cl (relative stereo) ?
Result: 93.3

Ask: # query: inhibition at 1 µM of entry CCOc1cccc(OCC)c1NC(=O)Cc1c(-c2ccccc2C(F)(F)F)c2cc(Cl)ccc2oc1=O
Result: 99.1

Ask: Report inhibition at 1 µM for COc1cc2c(cc1OC)N(C)C(=O)C(CC(=O)Nc1c(C(C)C)cccc1C(C)C)C2c1ccccc1 (centres unmarked) please.
Result: 97.3

Ask: // inhibition at 1 µM lookup, key: CC(C)c1cccc(C(C)C)c1NC(=O)C[C@H]1C(=O)N(C)c2ccc(Cl)cc2[C@H]1c1ccccc1 (relative stereo)
Result: 96

Ask: Look up inhibition at 1 µM for this compound: COc1cccc(OC)c1NC(=O)Cc1c(-c2ccccc2)c2cc(Cl)ccc2oc1=O
Result: 99.1

Ask: What value of measured inhibition at 1 µM is listed for Cc1cccc(C(C)C)c1NC(=O)C[C@H]1C(=O)N(C)c2ccc(Cl)cc2[C@H]1c1ccccc1 (relative stereo) ?
Result: 97.9

Ask: Requested read-out: inhibition at 1 µM. Entry: Cc1cc(C)c(NC(=O)Cc2c(-c3ccccc3C)c3cc(Cl)ccc3oc2=O)c(C)c1
Result: 99.3

Ask: // lookup inhibition at 1 µM for CCOc1cc(F)cc(OCC)c1NC(=O)Cc1c(-c2ccccc2C)c2cc(Cl)ccc2oc1=O
Result: 98.2

Ask: Param item = Cc1cc2c(cc1C)N(C)C(=O)[C@@H](CC(=O)Nc1c(C(C)C)cccc1C(C)C)[C@@H]2c1ccccc1Cl (relative stereo) ; retrieve measured inhibition at 1 µM.
Result: 97.8

Ask: Need inhibition at 1 µM of COc1ccccc1-c1c(CC(=O)Nc2c(C(C)C)cccc2C(C)C)c(=O)oc2ccc(Cl)cc12 , thanks.
Result: 98.2

Ask: Entry CCOc1cccc(OCC)c1NC(=O)Cc1c(-c2ccccc2OC)c2cc(Cl)ccc2oc1=O : reported inhibition at 1 µM = ?
Result: 99

Ask: Look up inhibition at 1 µM: Cc1cc2c(cc1C)N(C)C[C@@H](C(=O)Nc1c(C(C)C)cccc1C(C)C)[C@@H]2c1ccccc1Cl (relative stereo)
Result: 90.2

Ask: # query: inhibition at 1 µM of entry Cc1cc2c(-c3ccccc3)c(CC(=O)Nc3c(C(C)C)cccc3C(C)C)n(C)c(=O)c2cc1C
Result: 90.3

###

Target: acyl-CoA:cholesterol acyl transferase (ACAT) (Rattus norvegicus)
Construct: small intestine mucosal microsome fraction of a 6-week-old male Sprague-Dawley rat; from tissue; host or cells: rat small intestine mucosa, microsome fraction
Sequence (Q7TQM4 1-524): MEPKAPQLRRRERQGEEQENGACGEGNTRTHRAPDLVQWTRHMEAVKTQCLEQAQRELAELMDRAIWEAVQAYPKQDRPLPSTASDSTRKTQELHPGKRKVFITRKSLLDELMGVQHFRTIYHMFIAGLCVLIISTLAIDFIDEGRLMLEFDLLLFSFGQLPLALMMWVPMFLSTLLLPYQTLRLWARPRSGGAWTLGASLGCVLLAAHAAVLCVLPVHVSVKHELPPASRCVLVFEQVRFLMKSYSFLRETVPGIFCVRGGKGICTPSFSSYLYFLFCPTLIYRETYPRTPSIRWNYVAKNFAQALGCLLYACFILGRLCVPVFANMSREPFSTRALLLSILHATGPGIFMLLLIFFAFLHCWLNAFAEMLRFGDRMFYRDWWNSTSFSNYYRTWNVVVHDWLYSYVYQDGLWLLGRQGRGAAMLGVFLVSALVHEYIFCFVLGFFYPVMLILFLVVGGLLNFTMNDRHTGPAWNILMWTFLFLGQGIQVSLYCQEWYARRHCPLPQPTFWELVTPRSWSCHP
Experiment: Inhibitory action against acyl-CoA:cholesterol acyl transferase (ACAT), formation of labeled cholesterol ester, small intestine mucosal microsome fraction
Format: biochemical, male Sprague-Dawley rat
Details: 10^-6 M; read-out: ACAT Inhibitory Rate (%)
Field: inhibition at 1 µM. Provide a value for each of the compounds that follow.
# number only, unit % dropped from output

Ask: Using the record for CCOc1cc(F)cc(OCC)c1NC(=O)Cc1c(-c2ccccc2C(F)(F)F)c2cc(Cl)ccc2oc1=O , report its inhibition at 1 µM.
Result: 99.3

Ask: Consider the compound shown here: Cc1cccc(NC(=O)[C@H]2[C@H](c3ccc(F)cc3)c3ccccc3C(=O)N2C)c1 (relative stereo) What is its recorded inhibition at 1 µM?
Result: 90.3

Ask: I would be grateful if you could share the reported inhibition at 1 µM for COc1cc(OC)c(NC(=O)Cc2c(-c3ccccc3C)c3cc(Cl)ccc3oc2=O)c(OC)c1 .
Result: 99.5

Ask: Which measured inhibition at 1 µM value corresponds to CC(C)c1cccc(C(C)C)c1NC(=O)Cc1oc(=O)c2ccc(Cl)cc2c1-c1ccccc1 ?
Result: 99.2

Ask: Name the recorded inhibition at 1 µM for Cc1cccc(C)c1NC(=O)C[C@@H]1C(=O)N(C)c2ccc(Cl)cc2[C@H]1c1ccccc1 (relative stereo) .
Result: 98.4

Ask: inhibition at 1 µM for Cc1ccc2oc(=O)c(CC(=O)Nc3ccc(F)cc3F)c(-c3ccccc3)c2c1 ?
Result: 97.9

Ask: Reported inhibition at 1 µM, compound CC(C)c1cccc(C(C)C)c1NC(=O)C[C@@H]1C(=O)N(C)c2ccc(Cl)cc2[C@H]1c1ccccc1 (relative stereo) : ____
Result: 98.9

###

These compounds were tested on UniProtKB P25103; pIC50 is the recorded read-out.
Sequence (P25103 whole entry): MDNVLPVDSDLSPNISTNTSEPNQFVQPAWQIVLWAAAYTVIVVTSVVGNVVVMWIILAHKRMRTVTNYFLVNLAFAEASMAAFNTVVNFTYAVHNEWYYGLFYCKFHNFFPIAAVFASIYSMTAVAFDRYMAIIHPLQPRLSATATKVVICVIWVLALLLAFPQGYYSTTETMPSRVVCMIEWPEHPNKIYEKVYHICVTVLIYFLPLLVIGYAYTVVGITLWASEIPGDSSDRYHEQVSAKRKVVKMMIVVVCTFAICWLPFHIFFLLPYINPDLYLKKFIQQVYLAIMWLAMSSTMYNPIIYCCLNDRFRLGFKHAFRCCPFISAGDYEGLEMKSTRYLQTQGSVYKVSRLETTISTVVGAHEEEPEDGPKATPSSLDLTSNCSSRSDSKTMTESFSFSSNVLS
# reply with the number alone; pIC50 is -log10 of concentration in mol/L

Ask: Dear colleague, I am looking for the recorded pIC50 of the following compound: Cc1ccccc1-c1c(C(=O)NCc2cc(C(F)(F)F)cc(C(F)(F)F)c2)n(C)c(=O)c2ccccc12
Result: 8.60

Ask: Could you tell me which pIC50 is on file for CN(Cc1cc(C(F)(F)F)cc(C(F)(F)F)c1)C(=O)[C@H]1[C@@H](c2ccccc2)c2ccccc2C(=O)N1C (relative stereo) ?
Result: 7.47

Ask: May I ask what pIC50 has been recorded for CN(Cc1cc(C(F)(F)F)cc(C(F)(F)F)c1)C(=O)c1oc(=O)c2ccc(Cl)cc2c1-c1ccccc1 ?
Result: 8.07

Ask: // returns reported pIC50 for input Cn1c(C(=O)NCc2cc(C(F)(F)F)cc(C(F)(F)F)c2)c(-c2ccccc2C(F)(F)F)c2ccccc2c1=O
Result: 7.51

Ask: Item under review: O=C(NCc1cc(C(F)(F)F)cc(C(F)(F)F)c1)c1oc(=O)c2ccccc2c1-c1ccc(F)cc1 . Reported pIC50?
Result: 7.23

###

Target: UniProtKB P25103
Counter-ions that a name gives are not always drawn.
READOUT_NAME: IC50 (nM)
Your answer should be a plain number; it is taken to be in nM.

Ask: Give the measured IC50 of Cc1cc(C)cc(CN(C)C(=O)c2c(-c3ccccc3C)c3ccccc3c(=O)n2C)c1 .
Result: 30

Ask: Item COc1ccccc1CCOCc1c(-c2ccccc2)c2cc(C)c(C)cc2c(=O)n1C has what recorded IC50?
Result: 110

Ask: For the compound shown here, CN(Cc1cc(C(F)(F)F)cc(C(F)(F)F)c1)C(=O)c1c(-c2ccccc2)c2ccccc2[nH]c1=O , give the reported IC50.
Result: 3.1

Ask: Please look up its IC50: Cn1c(=O)c(C(=O)NCc2cc(C(F)(F)F)cc(C(F)(F)F)c2)c(-c2ccccc2Cl)c2ccccc21
Result: 63

Ask: Which IC50 value is on record for CN(Cc1cc(C(F)(F)F)cc(C(F)(F)F)c1)C(=O)c1c(-c2ccccc2)c2c(c(=O)n1C)CCCC2 ?
Result: 1.8

Ask: Can you share its IC50? I mean this compound: Cc1ccc(CNC(=O)c2c(-c3ccccc3)c3ccccc3c(=O)n2C)cc1
Result: 19

Ask: Any idea what IC50 was measured for CNc1nc(C(=O)N(C)Cc2cc(C(F)(F)F)cc(C(F)(F)F)c2)c(-c2ccccc2)c2ccccc12 ?
Result: 10

Ask: Sample Cc1cc(F)ccc1-c1c(C(=O)N(C)Cc2cc(C(F)(F)F)cc(C(F)(F)F)c2)n(C)c(=O)c2ccccc12 — what was its IC50?
Result: 0.7

Ask: # get_value(readout='IC50', item= CSc1nc2ccccc2c(-c2ccccc2)c1C(=O)N(C)Cc1cc(C(F)(F)F)cc(C(F)(F)F)c1 )
Result: 23

Ask: Report IC50 for COc1ccccc1CNCc1c(-c2ccccc2)c2cc(C)c(C)cc2c(=O)n1C please.
Result: 13

Ask: Sample Cc1ccccc1-c1c(COCc2cc(C(F)(F)F)cc(C(F)(F)F)c2)n(C)c(=O)c2ccccc12 — what was its IC50?
Result: 30

Ask: Please report the recorded IC50 for COc1ccccc1-c1c(C(=O)NCc2cc(C(F)(F)F)cc(C(F)(F)F)c2)n(C)c(=O)c2ccccc12 .
Result: 78

Ask: Would you mind telling me what IC50 value was observed for CCc1ccccc1-c1c(COCc2cc(C(F)(F)F)cc(C(F)(F)F)c2)n(C)c(=O)c2ccccc12 ?
Result: 62

Ask: Find the recorded IC50 belonging to CN(Cc1cc(C(F)(F)F)cc(C(F)(F)F)c1)C(=O)c1c(-c2ccccc2)c2ccccc2c(=O)n1CC[N+](C)(C)C and report it.
Result: 22

Ask: Report IC50 for COc1ccc(CNC(=O)c2c(-c3ccccc3)c3cc(C)c(C)cc3c(=O)n2C)cc1 please.
Result: 50

Ask: For the compound shown here, COc1cccc(CNC(=O)c2c(-c3ccccc3)c3cc(C)c(C)cc3c(=O)n2C)c1 , give the reported IC50.
Result: 88

Ask: Given the compound Cn1c(C(=O)NCc2cc(C(F)(F)F)cc(C(F)(F)F)c2)c(-c2ccccc2)c2ccccc2c1=O , what is its reported IC50?
Result: 6.1

Ask: I'd like to know its IC50. The compound in question is Cc1cc(C)cc(CNC2CCCn3c2c(-c2ccccc2)c2cc(C)c(C)cc2c3=O)c1 (centres unmarked) [Example 233, hydrochloride]
Result: 44

Ask: State the recorded IC50 for this entry: CCOC(=O)CCn1c(C(=O)NCc2cc(C(F)(F)F)cc(C(F)(F)F)c2)c(-c2ccccc2)c2ccccc2c1=O
Result: 80

Ask: Need IC50 of CN(C)CCn1c(C(=O)N(C)Cc2cc(C(F)(F)F)cc(C(F)(F)F)c2)c(-c2ccccc2)c2ccccc2c1=O [Example 184, hydrochloride] , thanks.
Result: 17
